Reported optical density is given for each of the following binders.
# Study System: human Fc (human)
# Protocol: ELISA, negative control
Attribute Measured: optical density (OD)

- 371_C05 (antibody, V domains shown) VH: EVQLLESGGGLVQPGGSLRLSCAASGFTFSDYGMHWVRQAPGKGLEWVANINYNGGYTGYADSVKGRFTISRDNSKNTLYLQMNSLRAEDTAVYYCARGANWHDTALDYWGQGTLVTVSS VL: DIQMTQSPSSLSASVGDRVTITCRASQSILSYLNWYQQKPGKAPKLLIYAATSRASGVPSRFSGSGSGTDFTLTISSLQPEDFATYYCQQSYDSPLTFGGGTKVEIK: 0.269
- 371_D12 (antibody, V domains shown) VH: EVQLLESGGGLVQPGGSLRLSCAASGFTFDSYGMNWVRQAPGKGLEWVSGINYNGGYKSYADSVKGRFTISRDNSKNTLYLQMNSLRAEDTAVYYCARAANWHDTALDYWGQGTLVTVSS VL: DIQMTQSPSSLSASVGDRVTITCRASQSILSYLNWYQQKPGKAPKLLIYAATSRASGVPSRFSGSGSGTDFTLTISSLQPEDFATYYCQQSYELPLTFGGGTKVEIK: 0.337
- 368_B12 (antibody, V domains shown) VH: EVQLLESGGGLVQPGGSLRLSCAASGFTFDSYGMHWVRQAPGKGLEWVSGINYNSGYTSYADSVKGRFTISRDNSKNTLYLQMNSLRAEDTAVYYCARAATWHDTHLDYWGQGTLVTVSS VL: DIQMTQSPSSLSASVGDRVTITCRASQSIVSYVNWYQQKPGKAPKLLIYAATSRASGVPSRFSGSGSGTDFTLTISSLQPEDFATYYCQQSYDLPLTFGGGTKVEIK: 0.567
- 366_A08 (antibody, V domains shown) VH: EVQLLESGGGLVQPGGSLRLSCAASGFTFDDYSMNWVRQAPGKGLEWVSGINYNSGYKGYADSVKGRFTISRDNSKNTLYLQMNSLRAEDTAVYYCARGANWHDTHLDYWGQGTLVTVSS VL: DIQMTQSPSSLSASVGDRVTITCRASQSIVSYVNWYQQKPGKAPKLVIYAATSRASGVPSRFSGSGSGTDFTLTISSLQPEDFATYYCQQSYNSPLTFGGGTKVEIK: 0.243
- 365_C06 (antibody, V domains shown) VH: EVQLLESGGGLVQPGGSLRLSCAASGFTFSDYGMHWVRQAPGKGLEWVSGINYNGGYTSYADSVKGRFTISRDNSKNTLYLQMNSLRAEDTAVYYCARAANWHDTALDYWGQGTLVTVSS VL: DIQMTQSPSSLSASVGDRVTITCRASQSISTYVNWYQQKPGKAPKLLIYAVTSLASGVPSRFSGSGSGTDFTLTISSLQPEDFATYYCQQSYDNPLTFGGGTKVEIK: 0.318
